Answer each item with its documented remaining at 1 h.
# ASSAY: Stability in human liver mitochondria assessed as compound remaining in presence of MAO-A and MAO-B measured after 60 mins
# Type: ADME
# MEASUREMENT_CONTEXT: read-out: Stability
Numbers only, in %.

In [3]: df
Out[3]:
                       compound  measured_parameter  measured_value
0  COc1ccc2[nH]cc(CCN3CCC3)c2c1    remaining at 1 h             106

// each listed compound needs a value for remaining at 1 h
1. Oc1cccc2[nH]cc(CCN3CCC3)c12
2. COc1ccc2[nH]cc(CCN(C)C)c2c1 [MEBUFOTENIN]
3. CN(C)CCc1c[nH]c2cccc(O)c12 [PSILOCIN]
4. CN(C)CCc1c[nH]c2ccccc12
5. c1ccc2c(CCN3CCC3)c[nH]c2c1

Out:
88.2
47.1
112
8.9
85.2
